# Target or test system: Histone deacetylase HD2 (Zea mays)
# Sequence (Q94F81 whole entry): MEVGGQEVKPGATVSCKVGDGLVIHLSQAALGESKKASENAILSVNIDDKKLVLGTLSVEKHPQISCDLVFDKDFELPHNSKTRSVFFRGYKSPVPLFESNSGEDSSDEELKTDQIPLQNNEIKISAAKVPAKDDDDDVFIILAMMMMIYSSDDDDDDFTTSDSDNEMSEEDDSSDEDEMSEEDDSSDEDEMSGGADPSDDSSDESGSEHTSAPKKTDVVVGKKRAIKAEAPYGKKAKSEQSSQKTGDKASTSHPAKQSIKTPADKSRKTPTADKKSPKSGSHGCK
So basically, if IC50 comes in under 40 nM it's label 1, and if it's 40 nM or more it's label 0.

-- ask Report whether reported IC50 is lower than 40 nM (strictly) for O=C(CCCCCCSc1nc(CCc2ccccc2)cc(=O)[nH]1)NO
-- reply label 0

-- ask Report whether reported IC50 is lower than 40 nM (strictly) for CC(c1ccccc1)c1cc(=O)[nH]c(SCCCCCC(=O)NO)n1 (stereo not given)
-- reply label 1

-- ask Report whether reported IC50 is lower than 40 nM (strictly) for COC(c1ccccc1)c1cc(O)nc(SCCCCCC(=O)NO)n1 (stereo not given)
-- reply label 0

* * *

Documented Selectivity ratio across a set of compounds
# Tested on: Zea mays
# Experimental protocol: Selectivity for HD1A class II HDAC over HD1B class I HDAC

Please review the following examples before continuing.
# Mol, Target or test system, Selectivity ratio
measured = [
    ("O=C(CCCCSc1nc(O)cc(CCc2ccccc2)n1)NO", "Zea mays", "> 3"),
    ("O=C(CCCCCSc1nc(-c2ccccc2)cc(=O)[nH]1)NO", "Zea mays", "> 3"),
    ("O=C(CCCCCCCSc1nc(O)cc(-c2ccccc2)n1)NO", "Zea mays", "> 3"),
]

Now consider the entry below.
-- ask I am curious: what Selectivity ratio value has been reported for O=C(CCCCCCSc1nc(O)cc(-c2ccccc2)n1)NO ?
-- reply > 3

* * *

Recorded pIC50 values (Histone deacetylase 1 (Mus musculus)) are given below.
// pIC50 is dimensionless: -log10 of concentration (M)

Please review the following examples before continuing.
# Mol, pIC50
records = [
    ("O=C(/C=C/c1cccc(CSc2nc(O)cc(Cc3ccccc3)n2)c1)NO", 7.05),
    ("O=C(/C=C/c1ccc(CSc2nc(O)cc(-c3ccccc3)n2)cc1)NO", 7.47),
    ("O=C(CCCCSc1nc(-c2ccccc2)cc(=O)[nH]1)NO", 7.40),
    ("O=C(/C=C/c1ccc(CSc2nc(O)cc(Cc3ccccc3)n2)cc1)NO", 6.96),
]

Now consider the entry below.
-- ask I am curious: what pIC50 value has been reported for O=C(CCCCCSc1nc(Cc2ccccc2)cc(=O)[nH]1)NO ?
-- reply 6.99

* * *

# Target or test system: Histone deacetylase HD1B (Zea mays, UniProt Q9ZTP8)
# Sequence (Q9ZTP8 whole entry): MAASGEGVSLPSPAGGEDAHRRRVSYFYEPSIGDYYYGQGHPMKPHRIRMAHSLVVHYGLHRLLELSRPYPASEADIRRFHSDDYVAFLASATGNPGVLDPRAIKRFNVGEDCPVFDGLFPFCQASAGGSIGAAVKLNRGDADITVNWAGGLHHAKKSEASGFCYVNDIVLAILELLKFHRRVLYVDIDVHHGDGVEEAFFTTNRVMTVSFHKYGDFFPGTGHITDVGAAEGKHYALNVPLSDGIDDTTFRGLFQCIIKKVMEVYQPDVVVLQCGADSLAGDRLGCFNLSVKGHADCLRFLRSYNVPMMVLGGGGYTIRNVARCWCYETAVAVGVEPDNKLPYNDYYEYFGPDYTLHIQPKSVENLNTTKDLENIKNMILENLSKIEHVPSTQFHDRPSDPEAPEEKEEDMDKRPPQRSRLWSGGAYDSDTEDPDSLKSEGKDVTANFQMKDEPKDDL
# Experimental protocol: Inhibition of maize HD1B
Recorded metric: IC50 (nM)
# number only, unit nM dropped from output

# Compound, IC50 (nM)
measured = [
    ("CC(/C=C/C(=O)NO)=C\\[C@@H](C)C(=O)c1ccc(N(C)C)cc1", 0.4),
    ("O=C(CCCCCSc1nc(-c2ccccc2)cc(=O)[nH]1)NO", 19),
    ("O=C(CCCCCCCSc1nc(CCc2ccccc2)cc(=O)[nH]1)NO", 62),
]

Now consider the entry below.
-- ask I am curious: what IC50 value has been reported for O=C(CCCCCCSc1nc(CCc2ccccc2)cc(=O)[nH]1)NO ?
-- reply 62

* * *

Recorded IC50 values (UniProt:Q9ZTP8) are given below.
# number only, unit µM dropped from output

Please review the following examples before continuing.
# Compound, Target or test system, Value unit, IC50
rows = [
    ("O=C(CCCSc1nc(O)cc(CCc2ccccc2)n1)NO", "UniProt:Q9ZTP8", "µM", 0.17),
    ("O=C(CCCCCSc1nc(C2(c3ccccc3)CC2)cc(=O)[nH]1)NO", "UniProt:Q9ZTP8", "µM", 0.047),
    ("CCC(c1ccccc1)c1cc(=O)[nH]c(SCCCCCC(=O)NO)n1 (centres undefined)", "UniProt:Q9ZTP8", "µM", 0.031),
    ("O=C(CCSc1nc(-c2ccccc2)cc(=O)[nH]1)NO", "UniProt:Q9ZTP8", "µM", 0.89),
    ("O=C(CCCCCCCSc1nc(-c2ccccc2)cc(=O)[nH]1)NO", "UniProt:Q9ZTP8", "µM", 0.089),
    ("O=C(/C=C/c1ccc(CSc2nc(O)cc(-c3ccccc3)n2)cc1)NO", "UniProt:Q9ZTP8", "µM", 0.112),
    ("O=C(CCCCCCSc1nc(-c2ccccc2)cc(=O)[nH]1)NO", "UniProt:Q9ZTP8", "µM", 0.048),
    ("O=C(CCCCCSc1nc(C(c2ccccc2)c2ccccc2)cc(=O)[nH]1)NO", "UniProt:Q9ZTP8", "µM", 0.058),
]

Now consider the entry below.
-- ask For UniProt:Q9ZTP8, provide IC50 of O=C(CCCCCSc1nc(Cc2ccccc2)cc(=O)[nH]1)NO please.
-- reply 0.018

Entry source: ChEMBL document CHEMBL1137389
